biological target: truncated His-MBP-Tev-KLHDC2 (residues 1-363) (Homo sapiens); construct: truncated His -MBP-Tev-KLHDC2 (residues 1-363) purified from E. coli; made in house; host or cells: E. coli; test: KLHDC2 HTRF binding assay; conditions: 1 nM KLHDC2 (residues 1-363), fluorescein-labeled diglycine peptide probe
pIC50: −log10 of the molar value.
measured.metric: pIC50

Record `O=C(O)Cn1cc(-c2cccc(N3CCCCC3)c2)ccc1=O` . Reported pIC50: < 5.30

Input `O=C(O)Cn1cc(CC(=O)N2CCCCC2)ccc1=O` . Output pIC50: < 5.30

Notebook: `CCc1cncc(N2CCC[C@H](C(=O)Nc3ccc(=O)n(CC(=O)O)c3)C2)c1` , pIC50 read as > 7.30

Kindly note the recorded pIC50 for `COc1ncc(-c2ccc(=O)n(CC(=O)O)c2)cc1F` , which is < 5.30

The measured pIC50 associated with `O=C(O)Cn1cc(N2CC[C@]3(CCN(c4cccnc4)C3)C2=O)ccc1=O` reads < 5.30

***
For this compound ( `O=C(O)Cn1cc(NC(=O)c2cccc(Br)c2)ccc1=O` ), measured pIC50 is < 5.30

The compound identified as `CS(=O)(=O)c1ccccc1-c1ccc(=O)n(CC(=O)O)c1` registered its pIC50 at < 5.30

// field: pIC50; key: `NCCCCCCc1cccc2c(-c3cccc(C(=O)Nc4ccc(=O)n(CC(=O)O)c4)c3)cncc12` ; value = 6.30 to 7.30

Entry `O=C(Nc1ccnc(C(=O)O)c1)c1cccc(-c2cccnc2)c1` , pIC50 reported as < 5.30

Consider `COc1cc(-c2ccsc2)ccc1C(=O)Nc1ccc(=O)n(CC(=O)O)c1` . Its measured pIC50 is 5.30 to 6.30

###

Biological target: truncated His-MBP-Tev-KLHDC2 (residues 1-363) (Homo sapiens)
Construct: truncated His -MBP-Tev-KLHDC2 (residues 1-363) purified from E. coli; made in house; host or cells: E. coli
Sequence (Q9Y2U9 1-363): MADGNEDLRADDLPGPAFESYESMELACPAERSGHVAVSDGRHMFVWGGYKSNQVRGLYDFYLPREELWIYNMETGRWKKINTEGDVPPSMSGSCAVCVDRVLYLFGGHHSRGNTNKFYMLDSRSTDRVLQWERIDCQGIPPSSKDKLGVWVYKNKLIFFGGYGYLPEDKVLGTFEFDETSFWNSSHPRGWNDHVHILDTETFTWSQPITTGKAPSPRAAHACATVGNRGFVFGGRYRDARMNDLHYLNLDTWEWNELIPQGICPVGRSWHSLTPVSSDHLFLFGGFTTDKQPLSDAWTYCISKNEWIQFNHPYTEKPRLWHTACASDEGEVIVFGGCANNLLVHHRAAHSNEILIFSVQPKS
Experiment: KLHDC2 HTRF binding assay
Conditions: 1 nM KLHDC2 (residues 1-363), fluorescein-labeled diglycine peptide probe
pIC50: −log10 of the molar value.
measured.metric: pIC50

Look over these answered cases.
Note to self: pIC50 recorded for `COc1ccc(-c2cccc(C)c2)cc1CC(=O)O` was < 5.30

Recorded pIC50 (compound `NCCCCCCCCCc1ccc2c(-c3cccc(C(=O)Nc4ccc(=O)n(CC(=O)O)c4)c3)cncc2c1` ): > 7.30

Summary for this compound, `O=C(O)Cn1ccccc1=O` : pIC50 is < 5.30

pIC50 in this record for `O=C(O)Cn1cc(NC(=O)C2(S(=O)(=O)c3ccc(Cl)cc3)CCCC2)ccc1=O` : < 5.30

Please fill in: pIC50 reported for `Cc1cc(=O)n(CC(=O)O)cc1NC(=O)c1cccc(-c2cccnc2)c1` = 6.30 to 7.30

Continuing:
// CC1CCN(c2cccnc2)CC1C(=O)Nc1ccc(=O)n(CC(=O)O)c1 (centres unmarked) : pIC50 value = 6.30 to 7.30

The reported pIC50 of the compound `O=C(O)Cn1cc(NC(=O)[C@H]2CCCN(c3cncc([N+](=O)[O-])c3)C2)ccc1=O` was > 7.30

Reported pIC50 ( `O=C(O)Cn1cc(NC(=O)c2ccnc(-c3ccccc3)c2)ccc1=O` ) = < 5.30

Kindly note the recorded pIC50 for O=C(O)C1CCOc2ccc(Cl)cc21 (centres unmarked) , which is < 5.30

Documented pIC50 of `Cc1ccc(F)c(-c2ccc(=O)n(CC(=O)O)c2)c1` : < 5.30
